- assay.protocol: yeast display, Sf9 membrane polyspecificity reagent, FACS + sequencing; frameworks hold sequencing errors
property.name: polyreactivity (PSR sort gate)

>>> measured("QVQLVESGGGLVQAGGSLRLICAASGSIFGYYAMGWYRQAPGKERELVAGITNSGDTNYADSVKGRFTISRDNAKNTVYLQMNSLKPEDTAVYYCAADGSYQYYYWGQGTQVTVSS")
"low polyreactivity"
>>> measured("QVQLVESGGGLVQAGGSLRLICAASGFTFYNYAKGWYRQAPGKERQLVAAISTSGGSTYYADSVKGRFTISRDNAKNTVYLQMNSLKPEDTAVYYCAAQATAYSYAYYYWGQGTQVTVSS")
"low polyreactivity"

The reported numbers originate from the nanobody polyreactivity screen of Harvey et al. (2022).
